Exercise: state measured IC50 for each of the compounds provided.
# assayed.target: epithelial sodium channel (ENaC) (Mus musculus, UniProt Q61180+Q9WU38+Q9WU39)
# Construct: Mouse kidney M-1 cells were cultivated in DMEM; endogenous in cells; host or cells: mouse kidney M-1 cells (cortical collecting duct line), dexamethasone-treated, on transwell filters
# Sequence (Q61180 1-699): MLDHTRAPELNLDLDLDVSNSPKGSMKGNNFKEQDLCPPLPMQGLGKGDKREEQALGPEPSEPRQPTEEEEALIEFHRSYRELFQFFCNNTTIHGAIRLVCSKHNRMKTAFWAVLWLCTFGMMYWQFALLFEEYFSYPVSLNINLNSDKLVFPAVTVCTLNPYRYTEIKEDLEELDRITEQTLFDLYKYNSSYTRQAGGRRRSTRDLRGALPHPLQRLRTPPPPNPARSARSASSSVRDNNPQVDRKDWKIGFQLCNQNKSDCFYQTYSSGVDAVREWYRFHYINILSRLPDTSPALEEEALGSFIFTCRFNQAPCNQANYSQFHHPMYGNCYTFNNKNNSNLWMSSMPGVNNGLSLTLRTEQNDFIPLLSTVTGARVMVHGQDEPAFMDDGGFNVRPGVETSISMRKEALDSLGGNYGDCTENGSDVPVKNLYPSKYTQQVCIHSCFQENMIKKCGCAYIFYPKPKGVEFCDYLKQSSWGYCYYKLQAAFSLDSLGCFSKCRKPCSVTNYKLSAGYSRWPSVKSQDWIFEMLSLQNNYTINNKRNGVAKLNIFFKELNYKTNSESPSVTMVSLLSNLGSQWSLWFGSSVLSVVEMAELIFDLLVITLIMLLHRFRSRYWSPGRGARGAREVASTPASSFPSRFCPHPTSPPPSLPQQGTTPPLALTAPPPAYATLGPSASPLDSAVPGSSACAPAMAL
# Sequence (Q9WU38 1-638): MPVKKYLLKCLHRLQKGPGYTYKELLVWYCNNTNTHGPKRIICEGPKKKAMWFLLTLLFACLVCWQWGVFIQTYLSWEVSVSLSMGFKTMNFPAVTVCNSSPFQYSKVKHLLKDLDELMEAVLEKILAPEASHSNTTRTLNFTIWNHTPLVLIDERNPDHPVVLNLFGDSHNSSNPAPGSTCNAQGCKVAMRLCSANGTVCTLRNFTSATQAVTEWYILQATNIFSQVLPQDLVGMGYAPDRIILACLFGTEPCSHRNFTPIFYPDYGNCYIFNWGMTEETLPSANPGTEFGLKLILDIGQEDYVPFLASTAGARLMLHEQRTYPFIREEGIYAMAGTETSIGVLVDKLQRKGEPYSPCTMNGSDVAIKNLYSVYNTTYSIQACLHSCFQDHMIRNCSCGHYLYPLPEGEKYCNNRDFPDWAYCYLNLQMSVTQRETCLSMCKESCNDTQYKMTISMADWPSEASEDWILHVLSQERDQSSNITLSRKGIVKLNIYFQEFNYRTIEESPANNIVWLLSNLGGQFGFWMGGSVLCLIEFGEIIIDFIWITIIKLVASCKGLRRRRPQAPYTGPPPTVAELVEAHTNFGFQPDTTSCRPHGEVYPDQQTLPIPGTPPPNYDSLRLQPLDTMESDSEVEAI
# Sequence (Q9WU39 1-655): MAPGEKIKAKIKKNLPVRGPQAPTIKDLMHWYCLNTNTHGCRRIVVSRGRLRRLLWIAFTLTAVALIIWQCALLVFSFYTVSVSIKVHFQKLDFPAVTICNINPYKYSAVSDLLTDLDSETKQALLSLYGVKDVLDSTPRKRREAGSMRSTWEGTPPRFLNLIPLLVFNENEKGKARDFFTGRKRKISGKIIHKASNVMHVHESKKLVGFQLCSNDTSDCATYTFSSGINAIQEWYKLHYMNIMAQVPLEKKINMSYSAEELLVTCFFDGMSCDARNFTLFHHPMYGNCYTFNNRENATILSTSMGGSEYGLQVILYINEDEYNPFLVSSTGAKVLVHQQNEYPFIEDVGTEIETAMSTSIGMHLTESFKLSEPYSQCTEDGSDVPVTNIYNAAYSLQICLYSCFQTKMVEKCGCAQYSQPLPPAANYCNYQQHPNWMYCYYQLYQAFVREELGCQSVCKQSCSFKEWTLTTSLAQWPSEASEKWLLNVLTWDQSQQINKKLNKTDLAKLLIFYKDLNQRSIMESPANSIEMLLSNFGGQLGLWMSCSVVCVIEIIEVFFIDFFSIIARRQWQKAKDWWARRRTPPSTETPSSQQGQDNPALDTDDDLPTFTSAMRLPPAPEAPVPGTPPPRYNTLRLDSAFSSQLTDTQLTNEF
# assay: Ussing Chamber assay: inhibition of amiloride sensitive short circuit current (I_sc) in M-1 cells
# Type: cell-based
# measurement.context: Ussing Chamber; mouse kidney M-1 cells on transwell filters; short circuit current; compound added to apical solution; 37° C.; read-out: IC50
// return numeric value only (unit: nM, not printed)

Lab note: epithelial sodium channel (ENaC) (Mus musculus, UniProt Q61180+Q9WU38+Q9WU39) assay, enter IC50 for N=C(NC(=O)c1nc(Cl)c(N)nc1N)NC1CCN(CC(=O)Nc2ccccc2)CC1 here 2

Param request: IC50 | system epithelial sodium channel (ENaC) (Mus musculus, UniProt Q61180+Q9WU38+Q9WU39) | item COC(=O)Cn1ccc(NC(=O)CN2CCC(NC(N)=NC(=O)c3nc(Cl)c(N)nc3N)CC2)cc1=O 18

Fill in IC50 for CC(=O)N(CCCN(C)C)c1ccc(NC(=O)CN2CCC(NC(N)=NC(=O)c3nc(Cl)c(N)nc3N)CC2)cc1 tested with epithelial sodium channel (ENaC) (Mus musculus, UniProt Q61180+Q9WU38+Q9WU39). 1

Output reported IC50 of the compound NC(=NC(=O)c1nc(Cl)c(N)nc1N)NC1CCN(CCCS(=O)(=O)O)CC1 on epithelial sodium channel (ENaC) (Mus musculus, UniProt Q61180+Q9WU38+Q9WU39). 147

Source: patent US9078909B2
